Reference source for all entries: BindingDB's records for PubMed 39655996

- STUDY_SYSTEM: Poly [ADP-ribose] polymerase 2 (Homo sapiens)
- Sequence (Q9UGN5 whole entry): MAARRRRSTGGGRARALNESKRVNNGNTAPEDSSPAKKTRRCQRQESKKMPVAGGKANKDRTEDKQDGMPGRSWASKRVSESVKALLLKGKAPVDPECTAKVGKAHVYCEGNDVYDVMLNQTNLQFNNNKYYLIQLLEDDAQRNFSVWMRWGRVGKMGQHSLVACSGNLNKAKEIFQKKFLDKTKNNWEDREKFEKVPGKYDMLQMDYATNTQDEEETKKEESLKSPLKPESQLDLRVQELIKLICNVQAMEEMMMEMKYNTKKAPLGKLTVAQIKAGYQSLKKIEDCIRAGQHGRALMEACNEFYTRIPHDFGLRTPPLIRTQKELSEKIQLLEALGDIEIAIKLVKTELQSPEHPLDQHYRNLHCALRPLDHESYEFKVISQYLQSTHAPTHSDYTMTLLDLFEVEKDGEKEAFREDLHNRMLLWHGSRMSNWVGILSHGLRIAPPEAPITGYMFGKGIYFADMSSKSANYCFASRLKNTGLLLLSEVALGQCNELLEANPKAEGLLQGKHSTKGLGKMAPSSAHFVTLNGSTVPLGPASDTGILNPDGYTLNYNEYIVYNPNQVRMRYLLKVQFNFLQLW
- ASSAY_PROCEDURE: Inhibition of N-terminal 6His-tagged full-length recombinant human PARP2 by fluorescence anisotropy assay
pIC50: −log10 of the molar value.
MEASURED_PROPERTY: pIC50

Identify measured pIC50 corresponding to `CNC(=O)c1ccc(N2CCN(Cc3ccc4nc(C)c(=O)[nH]c4c3F)CC2)c(C)n1`
< 4.00
